Value source: PubChem BioAssay (NCI)

- Test system: BT-549 breast
- assay-overview: NCI tumour cell line growth inhibition, 48 h; in the data active = GI50 below about 0.43 µM; inactive = the rest
Can you answer with just one of these options? 1.0 for active, 0.0 for inactive

The following molecules have reported results that may help.
molecule: O=C(CSc1nc2ccc([N+](=O)[O-])cc2[nH]1)Nc1cccc(Cl)c1
system-name: BT-549 breast
class-name: 0.0
//
molecule: O=C1Nc2ccccc2C1(c1ccc(O)c(F)c1)c1ccc(O)c(F)c1
system-name: BT-549 breast
class-name: 1.0
//
molecule: Cn1cc(C2=C(c3c4n(c5ccccc35)CC(CN)C4)C(=O)NC2=O)c2ccccc21 (stereo unspecified)
system-name: BT-549 breast
class-name: 0.0
//
molecule: C[As](C)Sc1ccnc(S[As](C)C)n1
system-name: BT-549 breast
class-name: 0.0
//
molecule: Nc1ncnc2c1c(-c1cccc(OCc3ccccc3)c1)cn2C1CC(CN2CCCC2)C1 (stereo unspecified)
system-name: BT-549 breast
class-name: 0.0

Please examine the following record next.
Q) Dear colleague, could you share the recorded outcome for CCOC(=O)C1=C(N)Oc2c(sc3c(C)cccc23)C1c1ccc(Cl)cc1 (stereo unspecified) when you have a moment?
A) 0.0

* * *

- Tested on: HS 578T breast
- assay-overview: NCI tumour cell line growth inhibition, 48 h
measure-name: GI50

Example entries begin here.
molecule: CCOC(=O)C1=C(N)Oc2c(sc3c(C)cccc23)C1c1ccc(Cl)cc1 (stereo not given)
system-name: HS 578T breast
observed-result: 1.78 µM

molecule: CN(CCCCCl)P(=O)(OCc1ccc([N+](=O)[O-])o1)C(F)(F)c1ccc(CC(=O)N[C@@H](CC(=O)O)C(=O)N[C@@H](Cc2ccc(C(F)(F)P(=O)(OCc3ccc([N+](=O)[O-])o3)N(C)CCCCCl)cc2)C(N)=O)cc1 (stereo not given in full)
system-name: HS 578T breast
observed-result: 37.6 µM

molecule: Fc1ccc(-c2ncn(C3CCNCC3)c2-c2ccnc(Oc3ccccc3)n2)cc1
system-name: HS 578T breast
observed-result: > 13.1 µM

For record O=C(CCCCC(=O)N/N=C\c1ccccc1Cl)N/N=C\c1ccccc1Cl the listed GI50 is 2.02 µM

For record COc1ccc(/C=C2\N=C(c3ccccc3)N(c3cc(C(F)(F)F)ccc3Cl)C2=O)cc1OC the listed GI50 is 24.4 µM

For record CCOCCc1c(O)nc(SC)[nH]c1=O the listed GI50 is > 100 µM

For record O=C(CCCCCCC(=O)N/N=C/c1ccc(N(c2ccccc2)c2ccccc2)cc1)NO the listed GI50 is 6.14 µM

For record CCOC(=O)c1ccc2c(c1)[n+](=O)c(C(=O)c1ccc3ccccc3c1)c(C(F)(F)F)n2[O-] the listed GI50 is 1.57 µM

For record O=C1Nc2cc(Cl)ccc2Oc2cc(Oc3ccccc3)ccc21 the listed GI50 is 3.31 µM

For record C=CCCC(O)c1ccc(C(O)CCCCCCCCCCCC)o1 (stereo not given) the listed GI50 is 24.2 µM

* * *

- System: OVCAR-8 ovarian
- assay-overview: NCI tumour cell line growth inhibition, 48 h
measure-name: TGI

For record O=C(Nc1ccc(Cl)c(Cl)c1)C(=O)Nn1c(=S)[nH]c2ccccc2c1=O the listed TGI is > 100 µM

For record C=CC1(c2ccc3ccccc3c2)OCC(CC)(CC)CO1 the listed TGI is > 100 µM

For record COc1ccccc1CNCCCN1C(=O)c2ccc3c4c(ccc(c24)C1=O)C(=O)N(CCCNCCCCNCCCCN)C3=O the listed TGI is 6.59 µM

For record CCCN(CCC)c1ccc(C=O)cc1 the listed TGI is > 100 µM

For record CCCCCCCCCCCC1=NC(C)(C)CN1CCO the listed TGI is 29.9 µM

For record CCOC(=O)N1CC2(C(=O)OC)C=CC1C(C(=O)OC)C2 (stereo not given) the listed TGI is > 100 µM

For record COc1ccc(C2=NN(C(=O)c3ccccc3)C(O)(c3cc(F)c(Cl)cc3Cl)C2)cc1OC (stereo not given) the listed TGI is > 100 µM

For record OC(c1ccsc1)c1cc2ccccc2s1 (stereo not given) the listed TGI is > 10 µM

For record COc1cc(CNc2nc3ccccc3nc2-c2cccs2)cc(OC)c1OC the listed TGI is > 100 µM

For record CSC(=NC1CC(n2cc(C)c(=O)[nH]c2=O)OC1CO)NC#N (stereo not given) the listed TGI is > 100 µM

For record Fc1ccc(CNc2c3ccccc3nc3ccccc23)cc1 the listed TGI is 12.5 µM

For record O=C(O)CN(CC(=O)O)Cc1cc2c(cc1O)Oc1cc(O)c(CN(CC(=O)O)CC(=O)O)cc1C21OC(=O)c2ccccc21 the listed TGI is > 100 µM

For record O=c1n(CCCN2CCN(c3cccc(Cl)c3)CC2)nc2n1-c1ccc3ccccc3c1SC2 the listed TGI is > 100 µM

For record COc1cc(C2C(Cl)C(=O)N2NC(=O)c2ccc(NC(C)=O)cc2)cc(Br)c1O (stereo not given) the listed TGI is > 100 µM

For record C[C@@H](C(=O)O)c1ccc(-c2ccccc2)c(F)c1 the listed TGI is > 100 µM

* * *

Some compounds, each annotated with its measured GI50.
- System: SF-539 CNS
- assay-overview: NCI tumour cell line growth inhibition, 48 h

compound: O=C(c1ccccc1)c1ccc(Cl)c([N+](=O)[O-])c1
GI50: 5100 nM

compound: COc1ccccc1CNCCCN1C(=O)c2ccc3c4c(ccc(c24)C1=O)C(=O)N(CCCNCCCCNCCCCN)C3=O
GI50: 2150 nM

compound: O=C(CCCCCCC(=O)N/N=C/c1ccc(N(c2ccccc2)c2ccccc2)cc1)NO
GI50: 2170 nM

compound: C=C1C(=O)O[C@H]2[C@H]1CC/C(COC(=O)/C=C\C(=O)NCc1ccc(Cn3c(=O)sn(-c4ccc(OC)cc4)c3=O)cc1)=C\CC[C@@]1(C)O[C@@H]21
GI50: 736 nM

compound: CC1(C)CC(=O)C2=C(C1)NC(SSC1=C(C#N)C(c3ccc(Br)cc3)C3=C(CC(C)(C)CC3=O)N1)=C(C#N)C2c1ccc(Br)cc1 (stereo not drawn)
GI50: > 150 µg/mL

For record COc1ccc2nc3cccc([N+](=O)[O-])c3c(NCCN(CCO)CCO)c2c1 the listed GI50 is 89.3 nM

For record COc1ccc(/C=C2\N=C(c3ccccc3)N(c3cc(C(F)(F)F)ccc3Cl)C2=O)cc1OC the listed GI50 is 24200 nM

* * *

- Tested on: CAKI-1 renal
- assay-overview: NCI tumour cell line growth inhibition, 48 h
measure-name: TGI

compound: CNc1nnnn1C1OC(CO)C(O)C1O (stereo not given)
observed-result: > 100 µM

compound: CC1(C)CC(=O)C(CC(C(=O)C(=O)Nc2cc(C(F)(F)F)ccc2Cl)C(=O)c2ccco2)C(=O)C1 (stereo not given)
observed-result: > 100 µM

compound: CCOC(=O)c1c[nH]c2c(OCc3ccccc3)c3ccccc3c(O)c2c1=O
observed-result: 21.1 µM

compound: O=C(/C=C/C=C/c1ccccc1)c1ccc(Nc2nc(Nc3ccccc3)nc(Nc3ccccc3)n2)cc1
observed-result: > 100 µM

compound: COc1ccc(CN2C(=O)C(Cc3cc(OC)c(OC)c(C)c3OC)N(C(=O)OC(C)C)C(=O)/C2=C/c2cc(OC)c(OC)c(C)c2OC)cc1 (stereo not given)
observed-result: > 100 µM

compound: Oc1ccc(-c2c3ccccc3c(-c3ccc(OCCBr)cc3)c3ccccc23)cc1
observed-result: 67.1 µM

compound: CC(N)C(=O)c1ccc(O)cc1 (stereo not given)
observed-result: > 100 µM

compound: C=CCCC(O)c1ccc(C(O)CCCCCCCCCCCC)o1 (stereo not given)
observed-result: 34.8 µM

For record CCc1ccc(CCC(=O)O)nc1 the listed TGI is > 100 µM

For record CN(C)c1ccc(/C=C(\C#N)c2cc3ccccc3n2C)cc1 the listed TGI is > 100 µM

For record CCOc1cc(C=O)c2c(ccc3ccc(OC)c(OC)c32)c1OC the listed TGI is > 100 µM

* * *

- System: NCI-H23 lung
- assay-overview: NCI tumour cell line growth inhibition, 48 h
measure-name: TGI

Example entries begin here.
compound: COc1ccc(S(=O)(=O)N2CCN(C(=O)OCc3ccccc3)CC2C(=O)NO)cc1 (stereo unspecified)
observed-result: > 25 µM

compound: O=C1Nc2ccccc2C1(c1ccc(O)c(F)c1)c1ccc(O)c(F)c1
observed-result: 25.2 µM

compound: CC1C(=O)C(C)C(c2cccs2)N(N=O)C1c1cccs1 (stereo unspecified)
observed-result: > 100 µM

compound: Cn1c(=O)nc2n(-c3ccc(F)cc3)c3ccccc3nc-2c1=O
observed-result: 42.8 µM

compound: CN(C)C(=S)N/N=C\C(=N/NC(=S)N(C)C)c1ccccc1
observed-result: > 45.4 µM

Lab note: compound O=C(O)CN(CC(=O)O)Cc1cc2c(cc1O)Oc1cc(O)c(CN(CC(=O)O)CC(=O)O)cc1C21OC(=O)c2ccccc21 tested on NCI-H23 lung; recorded TGI was > 100 µM

Lab note: compound Cc1nc2c(=O)[nH]c3ccccc3c2o1 tested on NCI-H23 lung; recorded TGI was > 100 µM

Lab note: compound CC1=C2C(=O)C3[C@@H](CCC4=CC(=O)CC[C@@]43C)C2CC[C@]12O[C@@H]1C[C@H](C)CN[C@H]1[C@H]2C (stereo partly specified) tested on NCI-H23 lung; recorded TGI was > 100 µM

Lab note: compound COC(=O)CCC(=O)CC(=O)C(=O)Nc1ccc(F)cc1 tested on NCI-H23 lung; recorded TGI was > 100 µM

Lab note: compound COc1cc(COC(=O)N2CCCCC2C(=O)O)c([N+](=O)[O-])cc1OC (stereo unspecified) tested on NCI-H23 lung; recorded TGI was > 100 µM

Lab note: compound COc1nc(/C=N/NC(N)=S)nc(OC)n1 tested on NCI-H23 lung; recorded TGI was > 100 µM
